growth listing for selected molecules.
# Tested on: NCI-H322M lung
# experimentalDetails: NCI-60 one-dose screen, 48 h (100 = growth as untreated, 0 = no growth, -100 = all killed)
# runParameters: 10 µM
Compounds without any hit were thinned out: in the full panel of roughly 83,000, 20% have a hit.
Express it in %; write the number only.

molecule	targetDesc	number
c1csc(-c2cc(-c3cc(-c4cccs4)[nH]n3)n[nH]2)c1	NCI-H322M lung	94.4
O=C1C=C(Nc2ccc([N+](=O)[O-])cc2)c2ccccc2C1=O	NCI-H322M lung	75.3
Cc1cc(=O)n(-c2ccc(F)cc2)[nH]1	NCI-H322M lung	95.6
C/C(=C\c1cc(Cl)ccc1OCC(=O)O)[N+](=O)[O-]	NCI-H322M lung	118
O=C(O)CNC(=O)c1ccccc1	NCI-H322M lung	104
CCCCC1(CC)COC(CCC)OC1 (configuration not stated)	NCI-H322M lung	117

With those in mind, consider the next molecule.
Name the reported growth value associated with the molecule CCOC(=O)C1OC1c1ccccc1 (configuration not stated)
101

###

# Test system: UACC-62 melanoma
# experimentalDetails: NCI-60 one-dose screen, 48 h
# runParameters: 10 µM unless noted
Compounds without any hit were thinned out: in the full panel of roughly 83,000, 20% have a hit. Calls of active or inactive are those of the source. Rule for the calls: active = growth percent below 10; inactive = the rest.
Just give me one of these, please: class 1 (active), class 0 (inactive)

What call does the record list for "O=C(O)/C=C/C(=O)NCc1ccccc1" ?
class 0

###

# Tested on: EKVX NSCLC
# experimentalDetails: NCI-60 one-dose screen, 48 h (100 = growth as untreated, 0 = no growth, -100 = all killed)
# runParameters: 10 µM
Compounds without any hit were thinned out: in the full panel of roughly 83,000, 20% have a hit.
reportedEndpoint: growth (%)
Express it in %; write the number only.

Examples from the recorded data:
molecule	unitsOfMeasure	growth
CC1CCCC(CC(N)=O)CC1 (centres undefined)	%	107
CCN(CC)CCNc1ccc(CO)c2sc3ccccc3c(=O)c12	%	65.6
Cc1cccc(CO)c1	%	113

Name the reported growth value associated with the molecule "COc1ccc(-c2cc(-c3cc(-c4ccc(OC)cc4)nc(N)n3)nc(N)n2)cc1"
92.1

Name the reported growth value associated with the molecule CCCCC1(CC)COC(CCC)OC1 (centres undefined)
93.1

Name the reported growth value associated with the molecule "O=S(=O)(O)c1ccc(Cl)c(Cl)c1"
91.4

Name the reported growth value associated with the molecule "O=C(/C=C/C(=O)c1ccccc1)c1ccccc1"
102

Name the reported growth value associated with the molecule "C[N+](C)(C)C(=O)c1ccccc1"
108

Name the reported growth value associated with the molecule COc1ccc(C(C)C=O)cc1 (centres undefined)
126

Name the reported growth value associated with the molecule "COc1ccc(C)cc1OC"
108

Name the reported growth value associated with the molecule "O=C(CS)Nc1ccc2ccccc2c1"
119

Name the reported growth value associated with the molecule "Cc1cc(C)cc(NCCC#N)c1"
103

Name the reported growth value associated with the molecule CC1CCC(C(=O)O)N1 (centres undefined)
107

Name the reported growth value associated with the molecule "O=c1[nH]n(-c2ccccc2)c(=O)cc1Cl"
110

###

# Tested on: NCI/ADR-RES ovarian
# experimentalDetails: NCI-60 one-dose screen, 48 h
# runParameters: 10 µM
# Procedure: Growth inhibition of the NCI/ADR-RES human […] tumor cell line is measured as a screen for anti-cancer activity. Cells are grown in 96 well plates and exposed to the test compound for 48 hours. Compounds are tested at a single concentration, which is 10^-5 M for most compounds. The reported endpoint is percent growth (GI% or GIPRCNT), where numbers from 0 - 100% represent growth inhibition, and numbers from -100% - 0 represent cell death. For example, a value of 40 represents 60% growth inhibition. […]
This is part of a sample that, as a whole, favours compounds with a hit. Of some 83,000 tested, about 20% had one in any assay. Calls of active or inactive are those of the source. Rule for the calls: active = growth percent below 10; inactive = the rest.
Just give me one of these, please: y = active, n = inactive

compound	targetDesc	category
O=C(Nc1cccc(NC(=O)Nc2cc(C(F)(F)F)ccc2Cl)c1)Nc1cc(C(F)(F)F)ccc1Cl	NCI/ADR-RES ovarian	n
O=C(O)c1cccc([N+](=O)[O-])c1	NCI/ADR-RES ovarian	n
O=c1cc(-c2ccccc2)[nH]c2c1CCCC2	NCI/ADR-RES ovarian	y
Cc1ccc(O)c(C(=O)c2ccccc2)c1	NCI/ADR-RES ovarian	n
O=[N+]([O-])c1ccccc1N=Nc1ccc(O)cc1O	NCI/ADR-RES ovarian	n

What call does the record list for "CC1=C(/C=C/C(C)=C/C=C/C(C)=C/CO)C(C)(C)CCC1" ?
n

What call does the record list for COc1cccc(/C=N/NC(=S)NC2CC3CCC2C3)c1O (configuration not stated) ?
n

What call does the record list for "CCOc1ccc2[nH]c(=S)sc2c1" ?
n

What call does the record list for "CN(C)CCC(=O)c1ccc(O)cc1" ?
n

What call does the record list for CC1C(=O)c2ccccc2CC1C(=O)O (configuration not stated) ?
n

What call does the record list for "NCCCN" ?
n

What call does the record list for "O=C(Cc1nc2ccc([N+](=O)[O-])cc2nc1CC(=O)c1ccccc1)c1ccccc1" ?
n

What call does the record list for "C[N+](C)=c1ccc2nc3c(cc(Nc4ccccc4)c4ccccc43)oc-2c1" ?
n
